Values from patent US20240262826A1

target: wild type c-kit (Homo sapiens (Human), UniProt P10721); experiment: PathScan phospho c-kit (Tyr719) sandwich ELISA in SCF-stimulated M-07e cells (pKIT assay); assay type: cell-based; conditions: ELISA assay (values not marked *)
Sequence (P10721 26-976): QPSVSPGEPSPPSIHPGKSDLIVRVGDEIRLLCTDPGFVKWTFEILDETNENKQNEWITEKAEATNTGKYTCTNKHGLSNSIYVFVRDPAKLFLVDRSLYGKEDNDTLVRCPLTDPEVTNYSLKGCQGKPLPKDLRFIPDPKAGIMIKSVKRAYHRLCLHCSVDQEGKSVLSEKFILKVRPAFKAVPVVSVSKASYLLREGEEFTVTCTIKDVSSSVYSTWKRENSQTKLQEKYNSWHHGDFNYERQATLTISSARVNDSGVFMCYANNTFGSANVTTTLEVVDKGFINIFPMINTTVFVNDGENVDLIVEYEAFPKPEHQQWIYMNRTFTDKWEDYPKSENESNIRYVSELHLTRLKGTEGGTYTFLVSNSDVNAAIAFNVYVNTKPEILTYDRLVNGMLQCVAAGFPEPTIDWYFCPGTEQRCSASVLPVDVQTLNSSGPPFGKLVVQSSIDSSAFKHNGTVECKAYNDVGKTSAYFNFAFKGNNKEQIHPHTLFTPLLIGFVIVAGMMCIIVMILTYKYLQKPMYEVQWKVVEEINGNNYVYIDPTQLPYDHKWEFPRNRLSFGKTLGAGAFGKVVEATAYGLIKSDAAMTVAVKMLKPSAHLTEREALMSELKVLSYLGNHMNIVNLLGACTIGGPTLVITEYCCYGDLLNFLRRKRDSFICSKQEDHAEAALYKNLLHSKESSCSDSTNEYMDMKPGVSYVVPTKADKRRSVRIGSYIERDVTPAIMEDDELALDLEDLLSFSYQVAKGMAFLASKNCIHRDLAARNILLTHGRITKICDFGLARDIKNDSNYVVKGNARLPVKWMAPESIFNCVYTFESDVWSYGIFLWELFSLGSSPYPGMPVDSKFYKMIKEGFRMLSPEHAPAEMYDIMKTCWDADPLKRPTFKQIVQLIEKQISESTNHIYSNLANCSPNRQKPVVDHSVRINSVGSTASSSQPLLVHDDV
Could you please report measured log10 IC50 for the items listed next?
Note: values are log10 of IC50 expressed in nM.

Solved cases (5 shown):
Cc1nn([C@@H](C)[C@H](C)O)cc1-c1ccn2ncc(C(=O)Nc3cc(-c4nnn(C5CC5)n4)c(F)cc3Cl)c2c1 (single isomer, unassigned); -0.40
Cc1ccc(-c2cnn(C3CC3)n2)cc1NC(=O)c1cnn2ccccc12; 1.05
CCOC(=O)N1CC(n2nnc(-c3ccc(C)c(NC(=O)c4cnn5ccc(NC)cc45)c3)n2)C1; 1.01
COC(=O)N1CC(c2nnn(-c3ccc(C)c(NC(=O)c4cnn5ccc(N6CCN(C)CC6)cc45)c3)n2)C1; 1.64
COC(=O)N1CC(c2cnn(-c3ccc(C)c(NC(=O)c4cnn5ccc(N6CCN(C)CC6)cc45)c3)n2)C1; 1.28

For every record below, what is its log10 IC50?
1. Cc1ccc(-c2nnn(CCCC(F)(F)F)n2)cc1NC(=O)c1cnn2ccccc12
2. COC(=O)N1CC(n2nnc(-c3ccc(C)c(NC(=O)c4cnn5ccccc45)c3)n2)C1
3. Cc1ccc(-c2nnn(C3CN(S(C)(=O)=O)C3)n2)cc1NC(=O)c1cnn2ccc(CCC(C)(C)O)cc12
4. Cc1ccc(-n2ncc(C3CC(F)(F)C3)n2)cc1NC(=O)c1cnn2ccccc12
5. C[C@](O)(CO)Cn1cc(-c2ccn3ncc(C(=O)Nc4cc(-n5nnc([C@@H]6C[C@H]6F)n5)ccc4Cl)c3c2)cn1 (single isomer, unassigned)

Response line:
[0.58, 1.62, 1.75, 0.95, -0.30]

For every record below, what is its log10 IC50?
1. COC(=O)N1CC(n2nnc(-c3ccc(C)c(NC(=O)c4cnn5ccc(N[C@H]6CCOC6)cc45)c3)n2)C1
2. COCCNc1ccn2ncc(C(=O)Nc3cc(-n4ncc(C5CN(C(=O)OC)C5)n4)ccc3Cl)c2c1
3. COC(=O)N1CC(n2nnc(-c3ccc(C)c(NC(=O)c4cnn5ccc(N(C)C)cc45)c3)n2)C1

Response line:
1.88
1.07
1.33
